- System: Saccharomyces cerevisiae
- assay.procedure: protein stability index of tFT-peptide fusion (C-terminal peptide) (PSI (0-1 scale)); higher = more stable (slower turnover)
- recorded.conditions: genetic background: wild type; temperature: 30 C
Assign class by protein stability index: not lower than 0.7 means 1 (yes); lower than 0.7 means 0 (no).

Take a look at these entries with their results.
biosequence: DFFTSFSLFFFL
study.target: Saccharomyces cerevisiae
category.label: 0 (no)
//
biosequence: VVALHYNYFSRL
study.target: Saccharomyces cerevisiae
category.label: 0 (no)
//
biosequence: VECVCVVVVRRM
study.target: Saccharomyces cerevisiae
category.label: 0 (no)
//
biosequence: EESKEKKKNEEE
study.target: Saccharomyces cerevisiae
category.label: 0 (no)
//
biosequence: GCLCAGSMVGDL
study.target: Saccharomyces cerevisiae;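 further: PSI is a weighted mean of sequencing reads over stability bins, variants kept only with over 10 reads, mCherry proximal and sfGFP distal, peptide attached via GGGS linker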
category.label: 0 (no)

Reported protein stability index at or above 0.7? PLPLSPPLLPAP
0 (no)

# bool: protein stability index of YEQLSGHPPVVR >= 0.7
1 (yes)

Entry RPWAKGTGGRCY : is its protein stability index no less than 0.7?
1 (yes)

Dear colleague, could you confirm whether VDSLFGSRVLRL has protein stability index at or above 0.7?
1 (yes)

Does FGVVGAVGWRLR have a reported protein stability index of at least 0.7?
0 (no)

protein stability index >= 0.7 for RSSFCILCCLFS ?
0 (no)
